- Test system: Staphylococcus aureus (ATCC25923)
- METHOD: MIC, broth microdilution (CLSI), Staphylococcus aureus ATCC25923
- CONDITIONS: Staphylococcus aureus, ATCC25923, read-out: S. aureus ATCC 25923 MIC
Counter-ions that a name gives are not always drawn.
MEASUREMENT_NAME: MIC

Reference set, count: 5
COc1cc(C)cc(C(CC(=O)N[C@H]2CC[C@H](N)CC2)c2cn(CC3CCCCC3)c3ccccc23)c1.Cl (stereo partly drawn) [Compound 133]	> 512 µg/mL
Cc1cccc(C(CC(=O)Nc2ccc(N3CCNCC3)cc2)c2cn(CC3CCCCC3)c3ccccc23)c1.Cl (stereo not drawn) [Compound 155]	> 512 µg/mL
Cc1cccc(C(CC(=O)NC2CCNCC2)c2cn(CC3CCC(F)(F)CC3)c3ccccc23)c1.Cl (stereo not drawn) [Compound 282]	34 µg/mL
Cl.O=C(CCC1C(=O)N(CC2CCCCC2)c2ccccc21)NC1CCNCC1 (stereo not drawn) [Compound 275]	> 512 µg/mL
Cc1cccc(C(CC(=O)Nc2ccc(N3CCCCC3)cc2)c2cn(CC3CCCCC3)c3ccccc23)c1.Cl (stereo not drawn) [Compound 158]	> 512 µg/mL

Lab book: MIC of Cl.N[C@H]1CC[C@H](NC(=O)CC(c2cccc(F)c2)c2cn(CC3CCCCC3)c3ccccc23)CC1 (stereo partly drawn) [Compound 137] noted as 8 µg/mL

Lab note: measured MIC of CC(C)c1cccc(C(CC(=O)N[C@H]2CC[C@H](N)CC2)c2cn(CC3CCCCC3)c3ccccc23)c1.Cl (stereo partly drawn) [Compound 198] was 17 µg/mL

The reported MIC of the compound Cc1cccc(C(CCNC2CCC(N)CC2)c2cn(CC3CCCCCC3)c3ccccc23)c1 (stereo not drawn) [Compound 245, hydrochloride salt] was 1 µg/mL

Please fill in: MIC reported for Cc1ccccc1C(CCNC1CCC(N)CC1)c1cn(CC2CCCCC2)c2ccccc12 (stereo not drawn) [Compound 186, hydrochloride salt] = 4 µg/mL

get_value(item= Cl.O=C(CCc1cn(CC2CCCCC2)c2ccccc12)NC1CCNCC1 [Compound 115] , readout=MIC) returns 128 µg/mL

# compound COc1ccccc1-c1ccc2c(c1)c(CCC(=O)N[C@H]1CC[C@H](N)CC1)cn2CC1CCCCC1.Cl [Compound 230] ; its MIC = 8 µg/mL

* * *

Attribute: MIC
- System: Staphylococcus aureus subsp. aureus (ATCC29213)
- METHOD: MIC, broth microdilution (CLSI), Staphylococcus aureus ATCC29213
- Format: cell-based
- CONDITIONS: Staphylococcus aureus, ATCC29213, Table XIII; read-out: S. aureus ATCC 29213 MIC
Structures can show the parent of a compound that is named as a salt.
Give the number; µg/mL is assumed, so skip it.

Cc1cccc(C(CCNC2CCN(C(N)=O)CC2)c2cn(C3CCCCC3)c3ccccc23)c1.Cl.Cl (centres unmarked)	16
Cc1cccc(-c2ccc3c(c2)c(CCCNCCCN)cn3CC2CCCCC2)c1.Cl.Cl	4

The recorded MIC for entry Cc1cccc(C(CCN[C@H]2CC[C@H](N)CC2)c2cn(CC3CCCC3)c3ccccc23)c1 (some centres unmarked) [Compound 164, hydrochloride salt] equals 8

Briefly, MIC measured for COc1ccccc1-c1ccc2c(c1)c(CCCN[C@H]1CC[C@H](N)CC1)cn2CC1CCCCC1 [Compound 237, hydrochloride salt] : 4
